Test system: NIH3T3 cells overexpressing Gluco-corticoid-R
Test: MTT cell viability, Gluco-corticoid-R overexpressing cells vs parental line
Assay type: cell-based, mouse
Conditions: Gluco-corticoid-R high-expressing cells / parental cell line, 3 to 4 days
Decide using logarithmic value of ratio of IC40 values: a value greater than or equal to 0.06 is Met, a smaller one is Not met.

Answered cases to consult:
O=[As]O [NaAsO2, sodium arsenite]
Met
C=C[C@]1(C)CC[C@@H](C(=C)C)C[C@H]1C(=C)C [b-elemene, β-elemene]
Not met
CCCC[C@@H](C)/C=C(C)/C=C(\C)C(=O)NC1=C[C@@](O)(/C=C/C=C/C=C/C(=O)NC2=C(O)CCC2=O)[C@@H]2O[C@@H]2C1=O [Manumycin, manumycin]
Met
COc1ccc2c(c1)CC[C@@H]1[C@@H]2CC[C@]2(C)[C@@H](NCCCCCCN3C(=O)C=CC3=O)CC[C@@H]12 [U73122]
Not met

Query: Decide: is the reported value of logarithmic value of ratio of IC40 values for Nc1nc2nc[nH]c2c(=S)[nH]1 [6-TG, 6-thioguanine] equal to or greater than 0.06?
Reply: Met

Query: Check the entry COC(=O)[C@@]1(O)C[C@H]2O[C@]1(C)n1c3ccccc3c3c4c(c5c6ccccc6n2c5c31)C(=O)NC4 [K252a] : does logarithmic value of ratio of IC40 values equal or exceed 0.06?
Reply: Met

Query: I'd appreciate it if you could say whether CN(C)CCCn1cc(C2=C(c3c[nH]c4ccccc34)C(=O)NC2=O)c2ccccc21 [GF109203X] has logarithmic value of ratio of IC40 values at least equal to 0.06.
Reply: Met

Query: Hi, just wondering whether CN[C@@H]1C[C@H]2O[C@@](C)([C@@H]1OC)n1c3ccccc3c3c4c(c5c6ccccc6n2c5c31)C(=O)NC4 [Staurosporine] shows logarithmic value of ratio of IC40 values of 0.06 or higher.
Reply: Not met

Query: Assess whether reported logarithmic value of ratio of IC40 values for CO[C@H]1[C@@H](OC)C[C@H](C)[C@@H](OC)C2=CC(=O)C=C(NC(=O)/C(C)=C/C=C\[C@H](OC)[C@@H](OC(N)=O)/C(C)=C/[C@@H]1C)C2=O [HMA, herbimycin A] sits at 0.06 or higher.
Reply: Not met

Query: Say whether O=c1c(-c2ccc(O)cc2)coc2cc(O)cc(O)c12 [Genistein, genistein] shows logarithmic value of ratio of IC40 values of 0.06 or more.
Reply: Not met

Query: Hi, just wondering whether COC[C@H]1OC(=O)c2coc3c2[C@@]1(C)C1=C(C3=O)[C@@H]2CCC(=O)[C@@]2(C)C[C@H]1OC(C)=O [Wortmannin, wortmannin] shows logarithmic value of ratio of IC40 values of 0.06 or higher.
Reply: Met

Query: API: above_or_equal(metric=logarithmic value of ratio of IC40 values, cutoff=0.06) for item CC(=O)OCOC(=O)CN(CC(=O)OCOC(C)=O)c1ccccc1OCCOc1ccccc1N(CC(=O)OCOC(C)=O)CC(=O)OCOC(C)=O [BAPTA-AM]
Reply: Met

###

Entries annotated with measured logarithmic value of ratio of IC40 values
System: NIH3T3 cells overexpressing calpastatin
Assay: MTT cell viability, calpastatin overexpressing cells vs parental line
Assay type: cell-based, mouse
Conditions: calpastatin high-expressing cells / parental cell line, 3 to 4 days
Non-standard residues stand in square brackets, D forms with d. Residues, ends and D or L forms follow the SMILES beside them. Nle = CCCC[C@H](N)C(=O)O
// response body must contain only the number

Here is how some compounds turned out for logarithmic value of ratio of IC40 values.
CC(=O)OCOC(=O)CN(CC(=O)OCOC(C)=O)c1ccccc1OCCOc1ccccc1N(CC(=O)OCOC(C)=O)CC(=O)OCOC(C)=O [BAPTA-AM]
0
Nc1nc2nc[nH]c2c(=S)[nH]1 [6-TG, 6-thioguanine]
−0.25
O=c1c(-c2ccc(O)cc2)coc2cc(O)cc(O)c12 [Genistein, genistein]
0.127

Turning now to a further compound:
Query: Look up logarithmic value of ratio of IC40 values of CCCC[C@@H](C=O)NC(=O)[C@H](CC(C)C)NC(=O)[C@H](CC(C)C)NC(C)=O [ALLN] (Ac-Leu-Leu-[Nle]-aldehyde) and report it.
Reply: 0.10

###

Consider the following molecules and their measured logarithmic value of ratio of IC40 values readings.
Tested on: NIH3T3 cells overexpressing PKCepsilon-KN
Assay: MTT cell viability, PKCepsilon-KN overexpressing cells vs parental line
Assay type: cell-based, mouse
Conditions: PKCepsilon-KN (first of two lines) high-expressing cells / parental cell line, 3 to 4 days
Response field accepts a number only; no unit should be typed.

Examples from the recorded data:
C=C[C@]1(C)CC[C@@H](C(=C)C)C[C@H]1C(=C)C [b-elemene, β-elemene]
0.00
C=CC1=C(C)c2cc3[n-]c(cc4nc(cc5[n-]c(cc1n2)c(C)c5CCC(=O)O)C(CCC(=O)O)=C4C)c(C)c3C=C.[Cl-].[Cl-].[Sn+4] [SnPP]
0.27
O=c1c(-c2ccc(O)cc2)coc2cc(O)cc(O)c12 [Genistein, genistein]
0.00
C/C=C(/C)C(=O)O[C@H]1C(C)=C2[C@H]([C@@H]1OC(=O)CCCCCCC)[C@@](C)(OC(C)=O)C[C@H](OC(=O)CCC)[C@@]1(O)[C@H]2OC(=O)[C@@]1(C)O [Thapsigargin, thapsigargin]
0.09
C=C[C@@]1(C)CC(=O)[C@]2(O)[C@@]3(C)[C@@H](O)CCC(C)(C)[C@@H]3[C@H](O)[C@H](OC(C)=O)[C@@]2(C)O1 [Forskolin, forskolin]
0.00

Read the next record carefully.
Query: Give logarithmic value of ratio of IC40 values; test system NIH3T3 cells overexpressing PKCepsilon-KN; molecule CC(C)(C)C(=O)Oc1ccc(S(=O)(=O)Nc2ccccc2C(=O)NCC(=O)O)cc1 [compound 5046]
Reply: −0.21

###

Test system: NIH3T3 cells overexpressing Gluco-corticoid-R
Experiment: MTT cell viability, Gluco-corticoid-R overexpressing cells vs parental line
Assay type: cell-based, mouse
Conditions: Gluco-corticoid-R high-expressing cells / parental cell line, 3 to 4 days
Non-standard residues stand in square brackets, D forms with d. Residues, ends and D or L forms follow the SMILES beside them. Nle = CCCC[C@H](N)C(=O)O
I would appreciate it if you labelled entries TRUE when logarithmic value of ratio of IC40 values is 0.1 or higher, otherwise FALSE.

Previously resolved entries follow.
C[C@@H]1O[C@@H](O[C@H]2C[C@@H](O)[C@]3(CO)[C@H]4[C@H](O)C[C@]5(C)[C@@H](C6=CC(=O)OC6)CC[C@]5(O)[C@@H]4CC[C@]3(O)C2)[C@H](O)[C@H](O)[C@H]1O
FALSE
C=C[C@@]1(C)CC(=O)[C@]2(O)[C@@]3(C)[C@@H](O)CCC(C)(C)[C@@H]3[C@H](O)[C@H](OC(C)=O)[C@@]2(C)O1
TRUE
CNc1ccc2oc(C[C@H]3O[C@@]4(CC[C@H]3C)O[C@H]([C@H](C)C(=O)c3ccc[nH]3)[C@H](C)C[C@H]4C)nc2c1C(=O)O
TRUE
C/C=C(/C)C(=O)O[C@H]1C(C)=C2[C@H]([C@@H]1OC(=O)CCCCCCC)[C@@](C)(OC(C)=O)C[C@H](OC(=O)CCC)[C@@]1(O)[C@H]2OC(=O)[C@@]1(C)O
TRUE
CCCC[C@@H](C=O)NC(=O)[C@H](CC(C)C)NC(=O)[C@H](CC(C)C)NC(C)=O [ALLN] (Ac-Leu-Leu-[Nle]-aldehyde)
TRUE

Turning now to a further compound:
Query: Answer whether logarithmic value of ratio of IC40 values of `C=CC1=C(C)c2cc3[n-]c(cc4nc(cc5[n-]c(cc1n2)c(C)c5CCC(=O)O)C(CCC(=O)O)=C4C)c(C)c3C=C.[Cl-].[Cl-].[Sn+4]` is greater than or equal to 0.1.
Reply: FALSE

###

Test system: NIH3T3 cells overexpressing CaMKIIa-Active
Assay: MTT cell viability, CaMKIIa-Active overexpressing cells vs parental line
Type: cell-based, mouse
Conditions: CaMKIIa-Active high-expressing cells / parental cell line, 3 to 4 days
Binning rule for recorded logarithmic value of ratio of IC40 values: A: < 0.02; B: ≥ 0.02 and < 0.3; C: ≥ 0.3

Worked set:
COC[C@H]1OC(=O)c2coc3c2[C@@]1(C)C1=C(C3=O)[C@@H]2CCC(=O)[C@@]2(C)C[C@H]1OC(C)=O
B
Nc1nc2nc[nH]c2c(=S)[nH]1
C
CN[C@@H]1C[C@H]2O[C@@](C)([C@@H]1OC)n1c3ccccc3c3c4c(c5c6ccccc6n2c5c31)C(=O)NC4
A

Now take the following molecule into account.
Query: # classify by logarithmic value of ratio of IC40 values band: `C[C@@H]1O[C@@H](O[C@H]2C[C@@H](O)[C@]3(CO)[C@H]4[C@H](O)C[C@]5(C)[C@@H](C6=CC(=O)OC6)CC[C@]5(O)[C@@H]4CC[C@]3(O)C2)[C@H](O)[C@H](O)[C@H]1O`
Reply: C

Data origin: patent US20040086901A1
